Let's look at some compounds and their measured growth.
system: NCI-H226 lung; test: NCI-60 one-dose screen, 48 h (100 = growth as untreated, 0 = no growth, -100 = all killed); details: 10 µM unless noted
Compounds without any hit were thinned out: in the full panel of roughly 83,000, 20% have a hit.
Expressed in %, but write only the number.

Study these solved cases before continuing.
c1csc(-c2nc(-c3cc4ccccc4c(N4CCOCC4)n3)cs2)c1; 107
Cn1c(=O)c2c(nc(N3CCCC3)n2C)n(C)c1=O; 102
Brc1ccc2c(c1)c(-c1nc(-c3c[nH]c4ncccc34)cs1)cn2CCCN1CCCCC1; 71.2
c1cnc2[nH]cc(-c3csc(-c4cn(CCCN5CCCCC5)c5ccccc45)n3)c2c1; 77
N=C(N)c1ccc(S(N)(=O)=O)cc1; 101
O=[N+]([O-])c1ccc(/C=N\Nc2ccccc2)cc1; 87.7

# get_value(readout='growth', item= "Cc1csc(Nc2nc(-c3cccc(Br)c3)nc(C(Cl)(Cl)Cl)n2)n1" )
110

Fill in: growth of "Cn1cccc1/C=C1/SC(=S)N(CCc2ccc(O)cc2)C1=O" is ___
87.8

So what's the measured growth for this one? "COc1ccccc1-n1cnc(N)c1C(=O)c1cc(OC)c(OC)c(OC)c1"
56.7

---

system: MCF7 breast; assay: NCI-60 one-dose screen, 48 h; details: 10 µM unless noted
About 83,000 compounds went through this panel and 20% of them were active in at least one assay; those are over-represented in the sample as a whole. Activity calls are given as the source filed them. How the source made its calls: active means growth percent below 10; inactive means the rest.
Hi! Could you answer with just one of these? active, inactive

O=C1/C(=C\c2ccco2)SC(=S)N1CCc1ccc(O)cc1; inactive

So what was the verdict on "Cn1cc(-c2csc(-c3cn(CCN)c4ccc(F)cc34)n2)c2cccnc21" in this test?
inactive

Dear all, I need the recorded test outcome for "COc1cc(OC)c2c(c1)c1nc3cc(C)c(C)cc3nc1n2CCN(C)C" , thank you.
inactive

---

system: HOP-62 NSCLC; assay: NCI-60 one-dose screen, 48 h; conditions: 10 µM unless noted
Compounds without any hit were thinned out: in the full panel of roughly 83,000, 20% have a hit. The source made the active and inactive calls. How the source made its calls: active means growth percent below 10; inactive means the rest.
Write down one outcome, taken from active, inactive

CCOc1ccc(NC(=O)c2ccccc2-c2ccccc2C(=O)O)cc1; inactive

Outcome logged for "CCCCCCCN(CCCCCCC)C(=N)c1ccnc2ccccc12" in this assay:
active

Would you mind telling me which call this test gave "COc1cc(OC)c2c(c1)c1nc3cc(C)c(C)cc3nc1n2CCN(C)C" ?
inactive

Could you kindly confirm the outcome this assay logged for "O=P(O)(c1ccccc1)c1ccccc1I" ?
inactive

Tell me the recorded outcome of this test for "NCCn1cc(-c2nc(-c3c[nH]c4ncccc34)cs2)c2cc(F)ccc21" .
inactive

Outcome? "COc1ccc2[nH]c(-c3ccc(Cl)cc3)cc(=O)c2c1"
inactive

Hey, what did the test say about "CC1(C)C(=O)CC[C@]2(C)[C@H]3C(=O)C=C4[C@@H]5C[C@@](C)(C(=O)NCCNCCN)CC[C@]5(C)CC[C@@]4(C)[C@]3(C)CC[C@@H]12" ?
inactive

In this assay, the call recorded for "Fc1ccc(Nc2nc(Nc3ccc(-c4nc5ccccc5[nH]4)cc3)nc(N3CCCC3)n2)cc1" was what?
inactive

Look up the recorded call for O=C1CN(c2ccccc2)C(=O)C1C(=O)Nc1ccc(Cl)c(Cl)c1 (stereo not given) in this test.
active

Please let me know the test result on file for "C#Cc1cc2c(N)c(C(=O)c3cc(OC)c(OC)c(OC)c3)[nH]c2cc1OC" .
inactive

Reference for the values: PubChem BioAssay (NCI)
